test.method.notes: Binding affinity for endothelin B receptor by measuring its ability to displace [125I]-ET-3 from porcine cerebellar tissue
Collected IC50 values appear next to each entry.
Enter your answer as a number in µM; do not include the unit.

compound.structure.string	IC50 [µM]
CCCCC[C@H]1[C@H](C(=O)O)[C@@H](c2ccc3c(c2)OCO3)CN1CC(=O)N(CCCC)CCCC	47

Ask: Consider the compound CCCCN(CCCC)C(=O)CN1C[C@H](c2ccc3c(c2)OCO3)[C@@H](C(=O)O)[C@@H]1CCC=C(C)C and give its measured IC50.
Reply: 33.2

====

Collected IC50 values appear next to each entry.
test.method.notes: Binding affinity for endothelin B receptor by measuring its ability to displace [125I]-ET-3 from porcine cerebellar tissue
Enter your answer as a number in µM; do not include the unit.

Known results for compounds:
compound.structure.string	result.unit	IC50
CCCCN(CCCC)C(=O)CN1C[C@H](c2ccc3c(c2)OCO3)[C@@H](C(=O)O)[C@@H]1CCn1cccn1	µM	28.6
CCCCN(CCCC)C(=O)CN1C[C@H](c2ccc3c(c2)OCO3)[C@@H](C(=O)O)[C@@H]1CCCC1OCCO1	µM	50
CCCCN(CCCC)C(=O)CN1C[C@H](c2ccc3c(c2)OCO3)[C@@H](C(=O)O)[C@@H]1CCC1OCCCO1	µM	62

Ask: Consider the compound C=CCCC[C@H]1[C@H](C(=O)O)[C@@H](c2ccc3c(c2)OCO3)CN1CC(=O)N(CCCC)CCCC and give its measured IC50.
Reply: 60

====

Collected IC50 values appear next to each entry.
test.method.notes: Binding affinity for endothelin B receptor by measuring its ability to displace [125I]-ET-3 from porcine cerebellar tissue
Enter your answer as a number in µM; do not include the unit.

Known results for compounds:
compound	result.unit	IC50
CCCCN(CCCC)C(=O)CN1C[C@H](c2ccc3c(c2)OCO3)[C@@H](C(=O)O)[C@@H]1CC(C)CCC (stereo partly specified)	µM	71
CCCCN(CCCC)C(=O)CN1C[C@H](c2ccc3c(c2)OCO3)[C@@H](C(=O)O)[C@@H]1CCc1ccoc1	µM	26

Ask: Consider the compound CCCCN(CCCC)C(=O)CN1C[C@H](c2ccc3c(c2)OCO3)[C@@H](C(=O)O)[C@@H]1CCC1OC(C)C(C)O1 (stereo partly specified) and give its measured IC50.
Reply: 48

Ask: Consider the compound CCCCN(CCCC)C(=O)CN1C[C@H](c2ccc3c(c2)OCO3)[C@@H](C(=O)O)[C@@H]1CCc1nc(C)c(C)o1 and give its measured IC50.
Reply: 29.7

Ask: Consider the compound CCCCN(CCCC)C(=O)CN1C[C@H](c2ccc3c(c2)OCO3)[C@@H](C(=O)O)[C@@H]1CCC(CC)CC and give its measured IC50.
Reply: 72

Ask: Consider the compound CCCCN(CCCC)C(=O)CN1C[C@H](c2ccc3c(c2)OCO3)[C@@H](C(=O)O)[C@@H]1CCCC(C)C and give its measured IC50.
Reply: 35.8

Ask: Consider the compound CCCCN(CCCC)C(=O)CN1C[C@H](c2ccc3c(c2)OCO3)[C@@H](C(=O)O)[C@@H]1CCc1cccn1C and give its measured IC50.
Reply: 43.6

Ask: Consider the compound CCCCN(CCCC)C(=O)CN1C[C@H](c2ccc3c(c2)OCO3)[C@@H](C(=O)O)[C@@H]1CCN1CCCCC1=O and give its measured IC50.
Reply: 85

Values compiled from BindingDB's records for doi:10.1021/jm980217s.
